// reported apparent KD of MS2 coat protein per item
System: MS2 coat protein
Test Description: apparent KD of MS2 coat protein; designed switch direction (-1 OFF switch, 1 ON switch): 1; higher = weaker reporter binding
Measurement Conditions: input ligand: FMN 200 uM
The answer is to be given in nM; state only the numeric part.

Exercise: Consider the sequence shown here: UCGUUCAUCGUAGGAUAUCUAGGAUAUGAACGAGGAUCACCCGAGCAGCAUCAGCGCAUCAGAGGAGAGAAGGACGAUGAUGCG [pwkr ssNG2 2F5 2FMN.4] (Eterna round: R96, puzzle: Same State NG 2) What is its recorded apparent KD of MS2 coat protein?
Solution: 1080

###

// reported apparent KD of K4 kissing-loop reporter per item
System: K4 kissing-loop RNA reporter;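 note: bound reporter read as fluorescence of individual clusters on recovered sequencing chips by microscopy, with normalized cluster intensities fitted with a binding model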
Test Description: apparent KD of K4 kissing-loop reporter; higher = weaker reporter binding
Measurement Conditions: Eterna round: R107; input ligand: arginine 13.2 mM
The answer is to be given in nM; state only the numeric part.

Exercise: Consider the sequence shown here: GGGAGUAGUGCGGCCGCCACUGAGAAAGAAGAAGAAUAUAGUGAUGUUAUAUAGGAAUAAAAGAACAGGACCGGGCAUUAGAUUU [SSTRyptB.T] What is its recorded apparent KD of K4 kissing-loop reporter?
Solution: 239

###

// reported apparent KD of MS2 coat protein per item
System: MS2 coat protein
Test Description: apparent KD of MS2 coat protein; higher = weaker reporter binding
Measurement Conditions: Eterna round: R107; input ligand: arginine 13.2 mM

Exercise: Consider the sequence shown here: AAUCAUGGAAACAUGACAUGAGGGUUACUCCGAGGACCGGUACGGCCGCCACUCGCGAGGAGGCGGACAUGAGGAUCACCCAUGU [#04 Tryptophan A Same State] What is its recorded apparent KD of MS2 coat protein?
Solution: 32.4 nM

Exercise: // query: AUGCCUAGUGGAAGGAGCGAGGGUCUUCUCAACAUGAGGAUCACCCAUGUUCUUUUAUACCCUCAGGUAGGUCGCCAUUGGGACA [Anenre]
Solution: 27.7 nM

Exercise: // query: UAUCCACAUGAGGAUCACCCAUGUUAGGAAGGAGCGGUGAAUGAACCAGGUAGGUCGCCUAGCUGAGGACCAUCGAUGGAUUCGU [Exclusion - Arginine A (Freestyle 15)]
Solution: 17 nM

###

Tested on: MS2 coat protein
Test Description: apparent KD of MS2 coat protein; higher = weaker reporter binding
Measurement Conditions: Eterna round: R107; input ligand: none
// reported apparent KD of MS2 coat protein per item
The answer is to be given in nM; state only the numeric part.

Worked set:
# Primary Sequence, Measured
measured = [
    ("GUUGGAUGCUCGGCCGCCACUGAGAGAGUCAUGUGAACAUGAGGAUCACCCAUGUAAUAUAUAUACAGGACCGGGAGUGUUGUAA [4.J]", 19.5),
    ("ACAUGAGGAUCACCCAUGUACAUAAGGGAAGGAGCGCGGUGGAACGCAGGUAGGUCGCCCAUAAUAACAAUAAAUAAAUUCAUGU [#04 Same State - Arginine A]", 14.7),
    ("UGUAUGGACUGAAGGAGCGGAAGAUACCAUGAGGAUCACCCAUGGAAUAAGGCGAAAGCCUUCCAGGUAGGUCGCAGUCCAUACU", 18.3),
]

Exercise: Consider the sequence shown here: GGGCGCUAUCCCGCGAGGGAUAGCGUUCGGCGAGGACCGGUACGGCCGCCACUCGAACGAGUGGGUACAUGAGGAUCACCCAUGU [Faa] What is its recorded apparent KD of MS2 coat protein?
Solution: 28

Exercise: // query: AAAUGAAGGCGAAGGAGCGGGAACAUGAGGAUCACCCAUGUGUAUGUAUGUAGUCAUGUAUCUCAGGUAGGUCGCGCUGUUACAU [Exclusion Arginine B 2]
Solution: 185

Exercise: // query: AAAAUAUAGACGGCCGCCACUAUAAUCAUGAGGAACAUGAGGAUCACCCAUGUAUGAGGAUCACCUAGGACCGGGUCAUAUAAAA [#24 Exclusion Tryptophan B]
Solution: 23.6

Exercise: // query: ACAUGAGGAUCACCCAUGUGGCGACUUGAUACCAGACCCGCACUAGUCCCUUGGCAGCAACUACGUGAGGGACACCCAUGUGAAG
Solution: 25.8

Exercise: // query: GAUAUGGAAACAUGUCAGAUCCUUACCGGUCGAGGACCGGUACGGCCGCCACUCGAAAACGAUGUACAUGAGGAUCACCCAUGUA [Ex Tryptophan A 19]
Solution: 14

Exercise: // query: UAUCCACAUGAGGAUCACCCAUGUUAGGAAGGAGCGGUGAAUGAACCAGGUAGGUCGCCUAGCUGAGGACCAUCGAUGGAUUCGU [Exclusion - Arginine A (Freestyle 15)]
Solution: 20.3

Exercise: // query: ACCUGUACGAAAAGUGCAGGACACGGAUAACGAGGACCGGUACGGCCGCCACUCGGAAUAACCUGAGGAUCACCCUGGUACCGUG [TrypAS 8 #AlternativeMS2 #Zipper #StaticStem]
Solution: 18.7

Exercise: // query: AAUAUUAACUGAAGGAGCGUGUUAUGUACAUGAGGAUCACCCAUGUAUAGGGUAAUACUAACACAGGUAGGUCGCAGAAUAAUUA [JR_SSArginiB_Sub010]
Solution: 20.6

Exercise: // query: CAGGUGGACUGAAGGAGCGAGUCAGGGACUUACAUGAGGAUCACCCAUGUCACGGUCGUCACUCAGGUAGGUCGCAGUUCGCCUC [Diinan]
Solution: 188

Exercise: // query: GGUCUCUGGAGCGAUACCAGCUUAAGUGUACUGGCCAGGUACAUGAGGAUCACCCAUGUAAGCCCUUGGCAGCGCUCCAGAGACC [#1 Exclusion - Theophylline B Attempt #14 (HarryS)]
Solution: 10.4

Exercise: // query: ACAUGAGGGCGAAGGAGCGCGAACAUGAGGAUCACCCAUGUGUAUGUAUGUUGUCAUGUAUCGCAGGUAGGUCGCGCUGUUACAU [Exclusion Arginine B]
Solution: 233

Exercise: // query: UUAACGAGCUGAAGGAGCGCUCCUCAACAACAUGAGGAUCACCCAUGUACACAUAAUAGGGAGCAGGUAGGUCGCAGCAGGAUGG [ss-argB-?]
Solution: 15.3

###

Tested on: MS2 coat protein
Test Description: apparent KD of MS2 coat protein; designed switch direction (-1 OFF switch, 1 ON switch): -1; higher = weaker reporter binding
Measurement Conditions: input ligand: FMN 200 uM
Test Readout: apparent KD of MS2 coat protein (nM)
The answer is to be given in nM; state only the numeric part.

# Primary Sequence, Assayed Target, apparent KD of MS2 coat protein, nM
data = [
    ("ACAUGUAAUGCAGGAUAUCUGACACAUGAGGAUCACCCAUGUGACCAGAGGAAUUGCUAAGAGUCGGAGAAGGGUAUGUACAUG [Ex NG2 #53] (Eterna round: R96, puzzle: Exclusion NG 2)", "MS2 coat protein", 19.4),
]

Now turn to the next sequence.
Exercise: Consider the sequence shown here: AGUACUAUCACGAGAGUGAUAGUACAUUAAACUUGUGAGACAUGAGGAUCACCCAUGUCCUCAUGAGCUCGUCUUAA [Mat - Sensor v2 - var 2 - Mod - D185] (Eterna round: R96, puzzle: Sensor v2, turn-off variant 2) What is its recorded apparent KD of MS2 coat protein?
Solution: 299

###

Tested on: MS2 coat protein
Test Description: apparent KD of MS2 coat protein; designed switch direction (-1 OFF switch, 1 ON switch): 1; higher = weaker reporter binding
Measurement Conditions: input ligand: microRNA oligo, concentration not stated
Threshold rule: apparent KD of MS2 coat protein greater than or equal to 0.4 µM is Condition met; below that, Condition not met.

Here are 4 sequences together with their reported answers.
# Primary Sequence, Classification
rows = [
    ("GCUCGAUGAUAGUCCUACAUGAGGAUCACCCAUGUAAGUGGGCAGGAUAUCUACAUGCAGAAUGUAGAGAAGGGCCCGUCGAGC [SameState NG3 #56] (Eterna round: R96, puzzle: Same State NG 3)", "Condition not met"),
    ("GUGGUCAGACAUGAGGAUCACCCAUGUGGAAUAAAUAAGGAAAAGGAUAUCUAAUAUAGGAUAUAAGAGAAGGUUUGGUUGGUG (Eterna round: R96, puzzle: Same State NG 3)", "Condition not met"),
    ("AUUAUCUAUGCAGGAUAUGAUUAACAUGAGGAUCACCCAUGUGGUGUUGUGAGUAAGGAGAGUGAUCAGAAGGGCAUUUUUUUU [JMF's solution 65] (Eterna round: R96, puzzle: Same State NG 2)", "Condition not met"),
    ("GGUCUAGUUACAGGAUAUGCAUUGCUUUGCGAUGCAGAAGGGUGGUAACAUGAGGAUCACCCAUGUGGGCCAGCGCAAAAGCGC [JL SSNG1 cdp] (Eterna round: R96, puzzle: Same State NG 1)", "Condition met"),
]

// switching to the query sequence
Exercise: For this sequence, is measured apparent KD of MS2 coat protein 0.4 µM or higher? UAAAGCGACGUAGGAUAUCCUCUACAUGCGUAAGGAGAAGGAUGCGCAACAUGAGGAUCACCCAUGUAAAACCAGCACUGCUGG [Isaerte] (Eterna round: R96, puzzle: Same State NG 1)
Solution: Condition not met
